Molecular target: PARK7 (Homo sapiens, UniProt Q99497)
Sequence (Q99497 whole entry): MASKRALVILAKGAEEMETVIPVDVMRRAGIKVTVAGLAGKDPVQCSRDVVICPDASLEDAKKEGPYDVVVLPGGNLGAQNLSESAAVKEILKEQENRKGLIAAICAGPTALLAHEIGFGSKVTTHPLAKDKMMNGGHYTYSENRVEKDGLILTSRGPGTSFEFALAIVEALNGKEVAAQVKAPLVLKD
Test: High-throughput screen of the crude compound library, PARK7 fluorescence polarization (FP) assay with FP reagent JYQ-107
Type: biochemical
Conditions: 1.25 µM, crude compound library; read-out: HTS FP assay %Inhibition (1.25 µM)
MEASUREMENT_KIND: inhibition at 1.25 µM (%)

[
  {
    "COMPOUND": "CC(=O)N1CCN(S(=O)(=O)c2cccc(C(=O)N3CCc4nc(NC(=O)[C@@H]5CCN(C#N)C5)sc4C3)c2)CC1",
    "MEASUREMENT_KIND": "inhibition at 1.25 µM",
    "UNIT": "%",
    "NUMBER": 91.8
  },
  {
    "COMPOUND": "N#CN1CC[C@@H](C(=O)Nc2nc3c(s2)CN(C(=O)c2ccc(-c4ccccc4)o2)CC3)C1",
    "MEASUREMENT_KIND": "inhibition at 1.25 µM",
    "UNIT": "%",
    "NUMBER": 87.3
  },
  {
    "COMPOUND": "Cn1ncc(C(=O)N2CCc3nc(NC(=O)[C@@H]4CCN(C#N)C4)sc3C2)c1-n1cccc1",
    "MEASUREMENT_KIND": "inhibition at 1.25 µM",
    "UNIT": "%",
    "NUMBER": 87
  },
  {
    "COMPOUND": "N#CN1CC[C@@H](C(=O)Nc2nc3c(s2)CN(C(=O)c2ccc(Oc4cccc(Cl)c4Cl)nn2)CC3)C1",
    "MEASUREMENT_KIND": "inhibition at 1.25 µM",
    "UNIT": "%",
    "NUMBER": 69.8
  },
  {
    "COMPOUND": "N#CN1CC[C@@H](C(=O)Nc2nc3c(s2)CN(C(=O)C2CN(S(=O)(=O)C4CC4)C2)CC3)C1",
    "MEASUREMENT_KIND": "inhibition at 1.25 µM",
    "UNIT": "%",
    "NUMBER": 91.8
  },
  {
    "COMPOUND": "CN1CCN(C(=O)C2CC=CCC2C(=O)N2CCc3nc(NC(=O)[C@@H]4CCN(C#N)C4)sc3C2)CC1 (stereo partly drawn)",
    "MEASUREMENT_KIND": "inhibition at 1.25 µM",
    "UNIT": "%",
    "NUMBER": 72.8
  },
  {
    "COMPOUND": "COc1ccc(OCc2cc(C)on2)c(C(=O)N2CCc3nc(NC(=O)[C@@H]4CCN(C#N)C4)sc3C2)c1",
    "MEASUREMENT_KIND": "inhibition at 1.25 µM",
    "UNIT": "%",
    "NUMBER": 81.9
  },
  {
    "COMPOUND": "Cc1nn(-c2ccc(C(F)(F)F)cn2)c(C)c1CC(=O)N1CCc2nc(NC(=O)[C@@H]3CCN(C#N)C3)sc2C1",
    "MEASUREMENT_KIND": "inhibition at 1.25 µM",
    "UNIT": "%",
    "NUMBER": 77.8
  },
  {
    "COMPOUND": "N#CN1CC[C@@H](C(=O)Nc2nc3c(s2)CN(C(=O)Cc2csc(N4CCCC4=O)n2)CC3)C1",
    "MEASUREMENT_KIND": "inhibition at 1.25 µM",
    "UNIT": "%",
    "NUMBER": 76
  },
  {
    "COMPOUND": "Cc1cc(C(=O)N2CCc3nc(NC(=O)[C@@H]4CCN(C#N)C4)sc3C2)c(C)n1-c1ccon1",
    "MEASUREMENT_KIND": "inhibition at 1.25 µM",
    "UNIT": "%",
    "NUMBER": 76.2
  },
  {
    "COMPOUND": "N#CN1CC[C@@H](C(=O)Nc2nc3c(s2)CN(C(=O)c2ccc(S(=O)(=O)NC4CC4)cc2)CC3)C1",
    "MEASUREMENT_KIND": "inhibition at 1.25 µM",
    "UNIT": "%",
    "NUMBER": 79.8
  },
  {
    "COMPOUND": "Cn1nc(C(=O)N2CCOCC2)cc1C(=O)N1CCc2nc(NC(=O)[C@@H]3CCN(C#N)C3)sc2C1",
    "MEASUREMENT_KIND": "inhibition at 1.25 µM",
    "UNIT": "%",
    "NUMBER": 87.6
  }
]
